I'd be grateful if you could share measured MBC99.5 for these entries.
- Test system: Salmonella typhimurium
- test: Bactericidal activity against Salmonella typhimurium ATCC 13311 after 72 hrs by microdilution method
- Type: functional, Salmonella enterica subsp. enterica serovar Typhimurium
// units = ×10⁻² umol/ml; emit number, no label

## Task Any idea what its MBC99.5 is? The compound is CNc1nc(C)c(C2=NN(c3ccccc3)C(c3ccc(OC)cc3)C2)s1 (stereo unspecified)
## Result 26.4

## Task What does the data say about its MBC99.5? Entry: CC1(C)S[C@@H]2[C@H](NC(=O)[C@H](N)c3ccccc3)C(=O)N2[C@H]1C(=O)O [AMPICILLIN]
## Result 49.2

## Task Suppose we examine the compound CNc1nc(C)c(C2=NN(c3ccccc3)C(c3ccccc3)C2)s1 (stereo unspecified) ; what MBC99.5 value has been reported?
## Result 28.7

## Task Fill blank: measured MBC99.5 of the compound CNc1nc(C)c(C2=NN(c3ccccc3)C(c3ccc(C)cc3)C2)s1 (stereo unspecified) is ____.
## Result 27.6

## Task What measured MBC99.5 goes with CN[C@@H]1[C@H](O[C@H]2[C@H](O[C@H]3[C@H](O)[C@@H](O)[C@H](N=C(N)N)[C@@H](O)[C@@H]3N=C(N)N)O[C@@H](C)[C@]2(O)C=O)O[C@@H](CO)[C@H](O)[C@H]1O [STREPTOMYCIN] ?
## Result 34.4

## Task Param item = CCNc1nc(C)c(C2=NN(c3ccccc3)C(c3ccccc3)C2)s1 (stereo unspecified) ; retrieve measured MBC99.5.
## Result 30.9

## Task Looking for the measured MBC99.5 of Cc1nc(-c2ccccc2)sc1C1=NN(c2ccccc2)C(c2ccccc2)C1 (stereo unspecified) , can you help?
## Result 25.3

## Task What does the data say about its MBC99.5? Entry: `CNc1nc(C)c(-c2cc(-c3ccccc3)nc(N)n2)s1`
## Result 6.74

## Task Please give the measured MBC99.5 for this compound: CNc1nc(C)c(C2=NN(c3ccccc3)C(c3ccc(F)cc3)C2)s1 (stereo unspecified)
## Result 27.3

## Task May I ask what MBC99.5 has been recorded for CNc1nc(C)c(C2=NN(c3ccccc3)C(c3ccc(Cl)cc3)C2)s1 (stereo unspecified) ?
## Result 18.3

## Task Endpoint output: MBC99.5 of `Cc1nc(-c2ccccc2)sc1-c1cc(-c2ccccc2)nc(N)n1` . Value?
## Result 34.8

Values were extracted from ChEMBL document CHEMBL3585344.
